Tested on: S. cerevisiae Burl-1 ts mutant growth, BacTiter-Glo, 38.5C 24 h
assaySummary: restored growth of temperature-sensitive Burl-1 yeast – whole organism, S. cerevisiae, Burl-1 ts mutant, luminescence, counter-screen for SUMOylation pathway inhibitor project, dose response (AID 463199)
The source made the active and inactive calls.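 The calls were made as follows: active = AC50, the dose giving half-maximal effect, exceeds a fixed cutoff for a compound that rescues yeast growth under heat; inactive = the rest, inconclusive results apart.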
quantity: AC50

Quick check: AC50 of Cc1cccc(C)c1NC(=O)C(Cl)C(=O)c1ccccc1 (centres undefined) ?
> 42 µM (inactive)

Quick check: AC50 of CCc1cc2c(=O)c(-c3nc4ccccc4n3C)c(C)oc2c(CN2CCOCC2)c1O ?
22.7 µM

Quick check: AC50 of COCCNC(=O)NC(=O)CSc1nc(C)c(C)c(C)n1 ?
> 42 µM (inactive)

Quick check: AC50 of COc1ccc(CN(C)S(=O)(=O)c2nnc(NC(=O)c3ccc(C)cc3)s2)cc1OC ?
> 42 µM (inactive)
